Molecular target: human M5 receptors (hM5) (Homo sapiens, UniProt P08912)
Construct: expressed in transfected cells
Sequence (P08912 whole entry): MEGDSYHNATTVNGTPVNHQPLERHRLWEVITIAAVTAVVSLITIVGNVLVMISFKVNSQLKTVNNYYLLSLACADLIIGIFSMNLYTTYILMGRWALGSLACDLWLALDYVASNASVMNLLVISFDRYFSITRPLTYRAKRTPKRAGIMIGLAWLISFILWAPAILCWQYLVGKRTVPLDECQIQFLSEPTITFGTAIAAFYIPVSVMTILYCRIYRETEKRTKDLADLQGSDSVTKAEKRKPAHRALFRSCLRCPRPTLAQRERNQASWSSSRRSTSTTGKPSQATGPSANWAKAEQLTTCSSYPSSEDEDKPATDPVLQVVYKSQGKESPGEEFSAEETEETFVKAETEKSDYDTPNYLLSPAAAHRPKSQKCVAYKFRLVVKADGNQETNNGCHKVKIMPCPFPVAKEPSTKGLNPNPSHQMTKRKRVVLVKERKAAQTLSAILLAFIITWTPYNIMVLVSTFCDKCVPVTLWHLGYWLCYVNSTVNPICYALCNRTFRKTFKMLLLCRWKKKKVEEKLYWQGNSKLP
Assay: Cell-based functional calcium mobilization assay of mAChR M5 activity
Conditions: CHO cells stably expressing hM5; minimum response at EC80 acetylcholine addition, normalized to maximum acetylcholine response
endpoint: EC80 MIN (%)
Return type: number; implicit unit %.

[[record]]
molecule = "Cc1nnc(S(=O)(=O)[C@H]2CC[C@@H](c3cn4ncnc4cc3C)CC2)o1 [Compound 4]"
endpoint = "EC80 MIN"
unit_abbrev = "%"
assay_value = 55

[[record]]
molecule = "Cc1nnc(S(=O)(=O)[C@H]2CC[C@H](c3cn4ncnc4cc3Cl)CC2)s1 [Compound 1]"
endpoint = "EC80 MIN"
unit_abbrev = "%"
assay_value = 3

[[record]]
molecule = "Cc1nnc(S(=O)(=O)[C@H]2CC[C@H](c3cn4ncnc4cc3Cl)CC2)o1 [Compound 2]"
endpoint = "EC80 MIN"
unit_abbrev = "%"
assay_value = 3


Here's the next entry for you.
Any idea what its EC80 MIN is? The molecule is Cc1nnc(S(=O)(=O)[C@H]2CC[C@H](c3cn4ncnc4cc3Cl)CC2)n1C [Compound 3] 2
